- SYSTEM: IL-13 (Homo sapiens (Human), UniProt P35225 35-146, limits assumed)
- Sequence (P35225 35-146 limits assumed): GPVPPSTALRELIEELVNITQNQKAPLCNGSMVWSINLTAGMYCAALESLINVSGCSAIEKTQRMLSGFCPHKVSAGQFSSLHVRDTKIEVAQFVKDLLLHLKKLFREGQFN
- PROTOCOL: Biacore
QUANTITY_NAME: kon (M⁻¹ s⁻¹)
Number in M⁻¹ s⁻¹, nothing else.

Consider the reported kon for these binders:
- BINDER: "M462 (antibody, V domains shown, anti-IL-13, human IgG1) VH: QVTLKESGPVLVKPTETLTLTCTVSGFSLSTYGMGVGWIRQPPGKALEWLAHIWWDDVKRYNPALKSRLTISKDTSKSQVVLTMTNMDPVDTATYYCARMGSDYDVWFDYWGQGTLVTVSS VL: EIVLTQSPATLSLSPGERATLSCRASKSISKYLAWYQQKPGQAPRLLIYSGSTLQSGIPARFSGSGSGTDFTLTISSLEPEDFAVYYCQQHNFGPYTFGQGTKLEIK"
  UNIT_ANNOTATION: "M⁻¹ s⁻¹"
  EXPERIMENTAL_RESULT: "1.14e+06"
- BINDER: "M1268 (antibody, V domains shown, anti-IL-13, human IgG1; text gives the Met positions as 34 and 100; copies: 2 + 2) VH: QVTLKESGPVLVKPTETLTLTCTVSGFSLSTYGVGVGWIRQPPGKALEWLAHIWWDDVKRYNPALKSRLTISKDTSKSQVVLTMTNMDPVDTATYYCARLGSDYDVWFDYWGQGTLVTVSS VL: EIVLTQSPATLSLSPGERATLSCRASKSISKYLAWYQQKPGQAPRLLIYSGSTLQSGIPARFSGSGSGTDFTLTISSLEPEDFAVYYCQQHNEYPYTFGQGTKLEIK"
  UNIT_ANNOTATION: "M⁻¹ s⁻¹"
  EXPERIMENTAL_RESULT: "1.61e+06"

Next up:
Return the recorded kon value; entry: M1375 (antibody, V domains shown) VH: QVTLKESGPVLVKPTETLTLTCTVSGFSLSTYGQGVGWIRQPPGKALEWLAHIWWDDVKRYNPALKSRLTISKDTSKSQVVLTMTNMDPVDTATYYCARLGSDYDVWFDYWGQGTLVTVSS VL: EIVLTQSPATLSLSPGERATLSCRASKSISKYLAWYQQKPGQAPRLLIYSGSTLQSGIPARFSGSGSGTDFTLTISSLEPEDFAVYYCQQHDYPYTFGQGTKLEIK
1.1e+06

FYI, the data here is from patent US20100261620A1.
